Parameter: pIC50. Scope: all listed entries.
Molecular target: MMP-9 (92 kDa, gelatinase B; type IV collagenase) (Homo sapiens)
Construct: endogenous in cells; enzyme purified from the conditioned medium
Sequence (P14780 107-707 limits assumed): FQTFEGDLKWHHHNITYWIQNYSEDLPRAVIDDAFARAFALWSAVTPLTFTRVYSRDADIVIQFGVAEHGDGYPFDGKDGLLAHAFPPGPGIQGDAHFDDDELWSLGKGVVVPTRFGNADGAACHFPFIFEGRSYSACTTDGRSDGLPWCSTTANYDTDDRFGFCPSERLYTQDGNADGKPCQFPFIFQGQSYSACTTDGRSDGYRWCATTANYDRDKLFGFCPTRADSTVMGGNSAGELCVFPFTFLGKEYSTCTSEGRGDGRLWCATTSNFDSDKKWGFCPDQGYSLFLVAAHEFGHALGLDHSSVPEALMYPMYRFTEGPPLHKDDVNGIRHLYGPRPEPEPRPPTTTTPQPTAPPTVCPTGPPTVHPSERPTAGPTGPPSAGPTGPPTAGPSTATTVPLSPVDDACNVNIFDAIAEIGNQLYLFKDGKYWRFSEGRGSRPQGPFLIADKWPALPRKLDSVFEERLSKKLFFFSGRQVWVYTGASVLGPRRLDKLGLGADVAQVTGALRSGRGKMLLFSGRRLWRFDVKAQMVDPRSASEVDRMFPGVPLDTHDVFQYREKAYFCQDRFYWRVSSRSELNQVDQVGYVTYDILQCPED
Experiment: Assay of type IV collagenase inhibitors: activated MMP-9 with type IV collagenase activity kit substrate, fluorescent intensity
Assay type: biochemical
pIC50: −log10 of the molar value.

{"columns": ["structure notation", "pIC50"],
 "data": [
  ["O=Cn1cc(C[C@@H](NS(=O)(=O)c2ccc(-c3nnn(-c4ccccc4)n3)cc2)C(=O)O)c2ccccc21", 6.24],
  ["O=C(Nc1ccc(S(=O)(=O)N[C@H](Cc2c[nH]c3ccccc23)C(=O)O)cc1)c1ccc([N+](=O)[O-])cc1", 7.35],
  ["CSc1ccc(C(=O)Nc2ccc(S(=O)(=O)N[C@H](Cc3c[nH]c4ccccc34)C(=O)O)cc2)cc1", 8.49],
  ["O=C(O)[C@@H](Cc1ccccc1)NS(=O)(=O)c1ccc(-c2nnn(-c3ccc(C(F)(F)F)cc3)n2)cc1", 6.67],
  ["CC(C)[C@@H](NS(=O)(=O)c1ccc(-c2nnn(-c3ccc(Cl)cc3)n2)cc1)C(=O)O", 7.78],
  ["CC(C)C[C@@H](NS(=O)(=O)c1ccc(-c2nnn(-c3ccccc3)n2)cc1)C(=O)O", 6.08],
  ["O=C(O)[C@@H](Cc1ccccc1)NS(=O)(=O)c1ccc(-c2nnn(-c3ccc(F)cc3)n2)cc1", 6.71]
]}
